Target: DP receptor (Homo sapiens, UniProt Q13258)
Construct: the human cell line LS174T, which expresses the endogenous DP receptor; endogenous in cells
Assay: SPA cAMP assay in human LS174 T cells (human DP functional assay)
Conditions: concentration of the compound that produces 50% inhibition in the SPA cAMP assay in human LS174 T cells; PGD2 15 nM final concentration
Procedure: […] The inhibitory effects of the compounds according to the invention are assessed in a human DP functional assay. […]
pIC50: −log10 of the molar value. Structures can show the parent of a compound that is named as a salt.
# key: entry, value: pIC50
recorded-endpoint: pIC50

> print(dat)
                                   compound  result
1  COc1nc(NCCc2ccc(Cl)cc2Cl)cc(-c2cccc(C(C)(C)C(=O)NS(=O)(=O)C(C)(C)C)c2)n1 [Example 7(a)]    8.70
2  COc1nc(NCCc2ccc(OC(F)(F)F)cc2)cc(N2CCCC(C(=O)NS(C)(=O)=O)C2)n1 (stereo not shown) [Example 10]    7.66
3  COc1nc(NCCc2ccc(Cl)cc2Cl)cc(-c2cc(C(C)(C)O)cc(C(C)(C)O)c2)n1 [Example 3]    6.14
4  COc1nc(NCCc2ccc(Cl)cc2Cl)cc(-c2ccc3c(c2)CC(C(=O)O)O3)n1 (stereo not shown) [Example 13, hydrochloride]    8.70

* * *

Target: DP receptor (Homo sapiens, UniProt Q13258)
Construct: the human cell line LS174T, which expresses the endogenous DP receptor; endogenous in cells
Sequence (Q13258 1-359): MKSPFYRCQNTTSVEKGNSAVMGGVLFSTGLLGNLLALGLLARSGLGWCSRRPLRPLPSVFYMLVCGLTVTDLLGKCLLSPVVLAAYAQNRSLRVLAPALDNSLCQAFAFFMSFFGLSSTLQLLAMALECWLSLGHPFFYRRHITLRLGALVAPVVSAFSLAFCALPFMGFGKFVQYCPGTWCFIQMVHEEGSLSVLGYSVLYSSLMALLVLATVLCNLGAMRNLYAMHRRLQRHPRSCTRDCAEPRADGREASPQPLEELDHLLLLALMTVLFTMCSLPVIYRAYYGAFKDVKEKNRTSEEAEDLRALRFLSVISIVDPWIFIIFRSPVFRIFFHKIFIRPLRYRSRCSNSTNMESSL
Assay: SPA cAMP assay in human LS174 T cells (human DP functional assay)
Conditions: concentration of the compound that produces 50% inhibition in the SPA cAMP assay in human LS174 T cells; PGD2 15 nM final concentration
# IC50 values compiled below
recorded-endpoint: IC50 (nM)

> print(dat)
                                   compound                       experimental.system  recorded.endpoint  result
1  COc1nc(NCCc2ccc(OC(F)(F)F)cc2)cc(N2CCCC(C(=O)O)C2)n1 (centres unmarked)  DP receptor (Homo sapiens, UniProt Q13258)               IC50       9
2  COc1nc(NCCc2ccc(Cl)cc2Cl)cc(N2CCCC(N)C2)n1 (centres unmarked)  DP receptor (Homo sapiens, UniProt Q13258)               IC50     985
3  COc1nc(NCCc2ccc(OC(F)(F)F)cc2)cc(-c2ccc(C(=O)O)s2)n1  DP receptor (Homo sapiens, UniProt Q13258)               IC50       2
4  COc1nc(NCCc2ccc(Cl)cc2Cl)cc(N2CCCC(C(=O)NS(C)(=O)=O)C2)n1 (centres unmarked)  DP receptor (Homo sapiens, UniProt Q13258)               IC50       1
5  COc1nc(NCCc2ccc(Cl)cc2Cl)cc(N2CCC(NC(C)=O)CC2)n1  DP receptor (Homo sapiens, UniProt Q13258)               IC50      26
6  COc1nc(NCCc2ccc(Cl)cc2Cl)cc(-c2cccc(C(C)(C)C(=O)N3CCSCC3)c2)n1  DP receptor (Homo sapiens, UniProt Q13258)               IC50     383
7  COc1nc(NCCc2ccc(Cl)cc2Cl)cc(N2CCCC(C(=O)NS(=O)(=O)N(C)C)C2)n1 (centres unmarked)  DP receptor (Homo sapiens, UniProt Q13258)               IC50      14
8  COc1nc(NCCc2ccc(Cl)cc2Cl)cc(N2CCC(C(=O)O)C2)n1 (centres unmarked)  DP receptor (Homo sapiens, UniProt Q13258)               IC50       9

* * *

Biological target: DP receptor (Homo sapiens)
Construct: the human cell line LS174T, which expresses the endogenous DP receptor; endogenous in cells
Assay: SPA cAMP assay in human LS174 T cells (human DP functional assay)
Settings: concentration of the compound that produces 50% inhibition in the SPA cAMP assay in human LS174 T cells; PGD2 15 nM final concentration
# IC50 per entry
recorded-endpoint: IC50 (nM)

> print(dat)
                                   compound  recorded.endpoint  scale.unit  result
1  COc1nc(NCCc2ccc(OC(F)(F)F)cc2)cc(N2CCCC(C(C)(C)C(=O)O)C2)n1 (stereo not shown) [Example 2]               IC50          nM       2
2  COc1nc(NCCc2ccc(Cl)cc2Cl)cc(N2CCCC(CC(=O)O)C2)n1 (stereo not shown) [Example 8]               IC50          nM     0.5
3  COc1nc(NCCc2ccc(Cl)cc2Cl)cc(N2CCCC(C(=O)Nc3nnn[nH]3)C2)n1 (stereo not shown) [Example 11(e)]               IC50          nM     4.4
4  COc1nc(NCCc2ccc(Cl)cc2Cl)cc(N2CCCC(C(=O)NS(=O)(=O)C(F)(F)F)C2)n1 (stereo not shown) [Example 11(d)]               IC50          nM      18
